Biological target: Serine/threonine-protein kinase MARK2 (Homo sapiens) (UniProt Q7KZI7)
Sequence (Q7KZI7 whole entry): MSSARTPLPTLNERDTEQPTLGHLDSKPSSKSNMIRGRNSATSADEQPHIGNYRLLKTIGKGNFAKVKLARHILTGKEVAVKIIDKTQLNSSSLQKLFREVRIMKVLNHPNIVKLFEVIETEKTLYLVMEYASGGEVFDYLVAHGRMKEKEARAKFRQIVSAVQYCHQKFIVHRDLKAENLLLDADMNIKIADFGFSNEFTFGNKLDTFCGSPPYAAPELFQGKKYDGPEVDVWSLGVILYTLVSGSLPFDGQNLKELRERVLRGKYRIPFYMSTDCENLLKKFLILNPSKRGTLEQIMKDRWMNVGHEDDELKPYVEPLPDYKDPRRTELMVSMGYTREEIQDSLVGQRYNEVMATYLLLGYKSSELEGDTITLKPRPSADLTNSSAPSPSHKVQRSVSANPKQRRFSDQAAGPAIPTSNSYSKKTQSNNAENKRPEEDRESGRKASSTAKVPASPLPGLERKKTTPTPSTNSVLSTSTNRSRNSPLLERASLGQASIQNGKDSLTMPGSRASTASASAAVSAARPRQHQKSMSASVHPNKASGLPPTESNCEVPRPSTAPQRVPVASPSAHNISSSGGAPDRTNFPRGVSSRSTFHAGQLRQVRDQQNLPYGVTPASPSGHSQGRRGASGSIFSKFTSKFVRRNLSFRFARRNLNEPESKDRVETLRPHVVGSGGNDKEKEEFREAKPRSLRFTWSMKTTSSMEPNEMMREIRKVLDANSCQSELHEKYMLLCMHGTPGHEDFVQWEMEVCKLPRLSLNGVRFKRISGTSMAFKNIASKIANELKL
Settings: at 1 µM
Description: GSK_PKIS: PAR-1Balpha mean inhibition at 1 uM [Nanosyn]
READOUT_TYPE: inhibition (%)
Write it as a number; the unit % goes unstated.

ITEM_SMILES | MEASUREMENT_UNIT | inhibition
CN(C)CCCn1c(-c2nonc2N)nc2cnccc21 | % | 2.24
CS(=O)(=O)Nc1cccc(-c2ccc3c(NC(=O)C4CC4)n[nH]c3c2)c1 | % | 2.88
Nc1nccc(C#Cc2cncnc2Nc2ccc(OCc3cccc(F)c3)c(Cl)c2)n1 | % | 8.86
ON=C1CCc2cc(-c3nc(C4CCNCC4)[nH]c3-c3ccncc3)ccc21 | % | 2.57
Nc1nccc(-c2c(-c3ccc(F)cc3)ncn2CCCN2CCOCC2)n1 | % | 1.26
Cc1nc(-c2ccccc2)n2nc(NCCCN3CCOCC3)ncc12 | % | 0.71
Cc1ccc2c(c1)/C(=N/Nc1ccc(S(N)(=O)=O)cc1)C(=O)N2 | % | 4.44
NS(=O)(=O)c1cccc(-c2cc3ccncc3cc2OCc2ccccc2)c1 | % | 4.78

Moving on to another compound below.
Inquiry: Please look up its inhibition: CN(C)c1cc2c(Nc3ccc4c(cnn4Cc4ccccc4)c3)ncnc2cn1
Reply text: 0.46

* * *

Let's look at some compounds and their measured inhibition.
Target: Ribosomal protein S6 kinase alpha-4 (Homo sapiens);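 note: mean inhibition of MSK2, GSK PKIS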
Conditions: at 1 µM
Write it as a number; the unit % goes unstated.

Inquiry: Please look up its inhibition: NC(=O)c1sc(-n2cnc3ccccc32)cc1OCc1ccccc1Br
Reply text: 4.72

Inquiry: Try the compound COc1cc2ncnc(Nc3ccc4c(cnn4Cc4ccccc4)c3)c2cc1OC
Reply text: 2.89

Inquiry: Try the compound CS(=O)(=O)CCNCc1nc(-c2ccc3ncnc(Nc4ccc(OCc5cccc(C(F)(F)F)c5)cc4)c3c2)cs1
Reply text: 2.66

Inquiry: Try the compound COc1cccc(-n2ncc3c(N/N=C/c4ccc(C)cc4)ncnc32)c1
Reply text: 5.55

Inquiry: Try the compound CCCN1CCCC(c2ccc(Nc3nc(Nc4cc(F)ccc4C(N)=O)c4cc[nH]c4n3)c(OC)c2)C1 (stereo not given)
Reply text: 7.01

Inquiry: Try the compound CCS(=O)(=O)c1ccc(OC)c(Nc2nccc(N(C)c3ccc4c(C)n[nH]c4c3)n2)c1
Reply text: 0.35

* * *

Molecular target: Aurora kinase A (Homo sapiens) (UniProt O14965);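 note: values are mean percent inhibition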
Sequence (O14965 whole entry): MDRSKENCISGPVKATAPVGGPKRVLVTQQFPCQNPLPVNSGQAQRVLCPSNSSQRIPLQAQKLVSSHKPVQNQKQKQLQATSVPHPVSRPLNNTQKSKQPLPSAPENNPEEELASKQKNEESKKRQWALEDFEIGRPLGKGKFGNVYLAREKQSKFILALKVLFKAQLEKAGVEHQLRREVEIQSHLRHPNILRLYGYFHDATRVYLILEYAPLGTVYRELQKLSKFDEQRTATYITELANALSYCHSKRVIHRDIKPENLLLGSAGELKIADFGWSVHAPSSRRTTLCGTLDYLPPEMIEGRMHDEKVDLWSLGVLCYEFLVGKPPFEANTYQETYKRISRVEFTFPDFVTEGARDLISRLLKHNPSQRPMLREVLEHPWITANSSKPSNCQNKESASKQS
Details: at 1 µM
Let's look at some compounds and their measured inhibition.
Write it as a number; the unit % goes unstated.

Guide cases for inhibition, answers given:
ITEM_SMILES | inhibition, %
C[C@@H](Oc1cc(-n2cnc3ccc(OC[C@@H](O)CO)cc32)sc1C(N)=O)c1ccccc1Cl | 2.13
Cc1cc(-c2ccccn2)cc(C)c1/C=C/c1cncc(-c2nn[nH]n2)c1 | 5.71
COC(=O)Nc1nc2cc(Oc3ccc(NC(=O)Nc4cccc(Br)c4)cc3)ccc2[nH]1 | 7.48
NS(=O)(=O)c1ccc(N/N=C2\C(=O)Nc3ccc(Cl)cc32)cc1 | 26.8

Moving on to another compound below.
Inquiry: Please look up its inhibition: CS(=O)(=O)CCNCc1nc(-c2ccc3ncnc(Nc4ccc(OCc5cccc(C(F)(F)F)c5)cc4)c3c2)cs1
Reply text: 2.26

* * *

Target: cGMP-dependent protein kinase 1 (Homo sapiens);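 note: listed percent inhibition of PRKG1 is a mean value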
Conditions: at 1 µM
Note to self: values exactly at 5% are criterion met. So inhibition at or above 5% is criterion met, below is criterion not met.

Consider the following illustrative entries.
COMPOUND | CATEGORY
NS(=O)(=O)c1ccc(Nc2cc(-c3cccc(O)c3)n[nH]2)cc1 | criterion met
CCn1c(-c2nonc2N)nc2c(C#CC(C)(C)O)nc(OCCNC)cc21 | criterion met
CCCN1CCCC(c2ccc(Nc3nc(Nc4cc(F)ccc4C(N)=O)c4cc[nH]c4n3)c(OC)c2)C1 (configuration not stated) | criterion met
O=S(=O)(CCOCc1ccc(-c2ccc3ncnc(Nc4ccc(OCc5cccc(F)c5)c(Cl)c4)c3c2)o1)c1ccccc1 | criterion not met
NS(=O)(=O)c1ccc(N/N=C2\C(=O)Nc3ccc(Cl)cc32)cc1 | criterion met

Inquiry: Quick check: does Cc1cc(Cl)cc2c1NC(=O)C2=NNc1ccc(S(N)(=O)=O)cc1 have inhibition greater than or equal to 5%?
Reply text: criterion not met

Inquiry: Try the compound CS(=O)(=O)Nc1cccc(-c2ccc3c(NC(=O)C4CC4)n[nH]c3c2)c1
Reply text: criterion not met

Inquiry: Try the compound CCS(=O)(=O)c1ccc(OC)c(Nc2nccc(N(C)c3ccc4c(C)n[nH]c4c3)n2)c1
Reply text: criterion not met

Inquiry: Try the compound Nc1ccc(C#Cc2cncnc2Nc2ccc(OCc3cccc(F)c3)c(Cl)c2)cc1
Reply text: criterion not met

Inquiry: Try the compound c1ccc(Nc2ncc(-c3ccccc3)o2)cc1
Reply text: criterion met

* * *

Biological target: Serine/threonine-protein kinase TBK1 (Homo sapiens);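 note: values are mean inhibition of TBK1, screened as part of the GSK published kinase inhibitor set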
Sequence (whole entry): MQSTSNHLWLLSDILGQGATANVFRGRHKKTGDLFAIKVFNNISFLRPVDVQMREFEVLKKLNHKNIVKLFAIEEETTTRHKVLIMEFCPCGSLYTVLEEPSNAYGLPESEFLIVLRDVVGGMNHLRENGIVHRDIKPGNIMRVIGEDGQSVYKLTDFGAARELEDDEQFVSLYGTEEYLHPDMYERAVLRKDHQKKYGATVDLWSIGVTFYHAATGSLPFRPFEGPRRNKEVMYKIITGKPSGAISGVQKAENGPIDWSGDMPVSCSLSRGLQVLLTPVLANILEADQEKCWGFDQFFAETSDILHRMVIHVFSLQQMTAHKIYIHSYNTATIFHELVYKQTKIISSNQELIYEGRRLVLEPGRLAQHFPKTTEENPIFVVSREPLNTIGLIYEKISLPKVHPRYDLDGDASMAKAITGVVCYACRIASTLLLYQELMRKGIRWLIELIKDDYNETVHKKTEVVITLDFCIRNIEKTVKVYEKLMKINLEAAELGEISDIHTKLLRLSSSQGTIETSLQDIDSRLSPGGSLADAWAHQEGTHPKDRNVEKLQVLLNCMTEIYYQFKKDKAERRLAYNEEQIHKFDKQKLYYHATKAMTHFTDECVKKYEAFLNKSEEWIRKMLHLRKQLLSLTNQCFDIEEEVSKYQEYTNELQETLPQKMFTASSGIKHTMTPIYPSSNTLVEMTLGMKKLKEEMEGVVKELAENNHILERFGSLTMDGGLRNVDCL
Conditions: at 1 µM
I'd appreciate it if you could label each record using inhibition and these ranges: 1 (below 4%), 2 (4% to below 6%), 3 (6% or more)

Consider the following illustrative entries.
ITEM_SMILES | CATEGORY
CN(C)c1cc2c(Nc3ccc4c(cnn4Cc4ccccc4)c3)ncnc2cn1 | 1
COC(=O)c1ccc2c(c1)C(=Cc1cc(Br)c(O)c(Br)c1)C(=O)N2 | 3
CCS(=O)(=O)c1ccc(OC)c(Nc2nccc(N(C)c3ccc4c(C)n[nH]c4c3)n2)c1 | 2

Inquiry: Assign a bin to Nc1nccc(-c2c(-c3ccc(F)cc3)ncn2CCCN2CCOCC2)n1
Reply text: 2

Inquiry: Try the compound Cc1ccc(NC(=O)CC2CC2)cc1-c1ccc(C(=O)NCC2CC2)cc1
Reply text: 2

* * *

Biological target: Dual specificity tyrosine-phosphorylation-regulated kinase 1B (Homo sapiens) (UniProt Q9Y463);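 note: values are mean percent inhibition of DYRK1B, from the GSK_PKIS set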
Sequence (Q9Y463 whole entry, looked up): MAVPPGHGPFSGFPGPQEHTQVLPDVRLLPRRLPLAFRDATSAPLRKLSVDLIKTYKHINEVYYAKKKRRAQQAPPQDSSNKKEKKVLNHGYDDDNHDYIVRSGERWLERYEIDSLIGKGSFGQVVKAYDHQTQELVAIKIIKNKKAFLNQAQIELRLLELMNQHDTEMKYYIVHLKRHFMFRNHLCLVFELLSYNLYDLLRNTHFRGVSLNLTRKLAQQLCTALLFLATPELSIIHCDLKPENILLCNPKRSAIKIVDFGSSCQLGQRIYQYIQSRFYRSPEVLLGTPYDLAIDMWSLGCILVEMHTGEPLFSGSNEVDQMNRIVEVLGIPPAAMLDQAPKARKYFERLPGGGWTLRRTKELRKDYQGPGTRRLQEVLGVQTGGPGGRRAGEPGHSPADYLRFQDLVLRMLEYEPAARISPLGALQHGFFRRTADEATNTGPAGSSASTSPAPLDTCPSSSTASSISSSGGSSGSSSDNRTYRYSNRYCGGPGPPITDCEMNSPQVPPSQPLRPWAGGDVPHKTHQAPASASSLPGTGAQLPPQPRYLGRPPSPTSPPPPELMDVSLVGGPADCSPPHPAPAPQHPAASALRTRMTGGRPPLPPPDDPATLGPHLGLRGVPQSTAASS
Settings: at 1 µM
Let's look at some compounds and their measured inhibition.
Write it as a number; the unit % goes unstated.

Inquiry: Please look up its inhibition: CN(C)C(=O)O[C@H]1CN[C@H](C#Cc2cc3ncnc(Nc4ccc(OCc5cccc(F)c5)c(Cl)c4)c3s2)C1
Reply text: 0.78

Inquiry: Try the compound NS(=O)(=O)c1ccc(Nc2cc(-c3cccc(O)c3)n[nH]2)cc1
Reply text: 2.4

Inquiry: Try the compound CCS(=O)(=O)c1ccc(OC)c(Nc2ncc(-c3cccc(OC)c3)o2)c1
Reply text: 37.7

Inquiry: Try the compound c1ccc(Cc2nc3ccc(Nc4ncnc5ccccc45)cc3[nH]2)cc1
Reply text: 8.13

* * *

Let's look at some compounds and their measured inhibition.
Target: Serine/threonine-protein kinase D1 (Homo sapiens) (UniProt Q15139);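 note: each value is an averaged percent inhibition of PRKD1 kinase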
Sequence (Q15139 whole entry): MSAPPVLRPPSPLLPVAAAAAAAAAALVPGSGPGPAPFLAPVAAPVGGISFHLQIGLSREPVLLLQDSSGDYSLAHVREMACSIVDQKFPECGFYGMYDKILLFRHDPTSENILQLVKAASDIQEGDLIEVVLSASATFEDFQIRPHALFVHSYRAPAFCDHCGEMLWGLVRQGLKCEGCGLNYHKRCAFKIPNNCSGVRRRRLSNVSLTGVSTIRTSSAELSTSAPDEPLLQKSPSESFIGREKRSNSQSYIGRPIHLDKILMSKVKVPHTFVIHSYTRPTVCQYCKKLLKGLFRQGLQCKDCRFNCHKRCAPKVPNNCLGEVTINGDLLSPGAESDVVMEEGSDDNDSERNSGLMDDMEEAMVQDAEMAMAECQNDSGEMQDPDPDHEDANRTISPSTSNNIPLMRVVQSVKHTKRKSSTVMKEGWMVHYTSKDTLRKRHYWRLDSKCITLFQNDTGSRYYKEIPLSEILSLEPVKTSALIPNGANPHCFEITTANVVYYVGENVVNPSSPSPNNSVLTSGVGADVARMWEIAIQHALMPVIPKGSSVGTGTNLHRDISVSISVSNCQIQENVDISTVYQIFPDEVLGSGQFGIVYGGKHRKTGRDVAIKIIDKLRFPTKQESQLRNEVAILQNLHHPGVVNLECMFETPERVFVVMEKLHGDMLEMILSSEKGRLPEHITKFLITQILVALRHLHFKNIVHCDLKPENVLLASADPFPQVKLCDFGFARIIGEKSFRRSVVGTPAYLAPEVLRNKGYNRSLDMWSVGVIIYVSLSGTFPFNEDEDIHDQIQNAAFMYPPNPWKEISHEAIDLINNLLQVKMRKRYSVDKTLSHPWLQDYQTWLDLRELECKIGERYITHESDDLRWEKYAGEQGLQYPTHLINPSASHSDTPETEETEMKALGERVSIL
Conditions: at 1 µM
Write it as a number; the unit % goes unstated.

Guide cases for inhibition, answers given:
ITEM_SMILES | MEASUREMENT_UNIT | RECORDED_RESULT
Nc1nccc(-c2c(-c3ccc(F)cc3)nn3cc(C(F)(F)F)ccc23)n1 | % | 3.05
Nc1nccc(C#Cc2cncnc2Nc2ccc(OCc3cccc(F)c3)c(Cl)c2)n1 | % | 6.75
c1ccc(Cc2nc3ccc(Nc4ncnc5ccccc45)cc3[nH]2)cc1 | % | 6.43
Cc1cc(Cl)cc2c1NC(=O)C2=NNc1ccc(S(N)(=O)=O)cc1 | % | 2.15

Moving on to another compound below.
Inquiry: Please look up its inhibition: NS(=O)(=O)c1cccc(Nc2cc(-c3ccc(F)cc3)n[nH]2)c1
Reply text: 4.04

* * *

Let's look at some compounds and their measured inhibition.
Molecular target: Misshapen-like kinase 1 (Homo sapiens) (UniProt Q8N4C8);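 note: mean inhibition value reported, from GSK PKIS kinase profiling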
Sequence (Q8N4C8 whole entry, looked up): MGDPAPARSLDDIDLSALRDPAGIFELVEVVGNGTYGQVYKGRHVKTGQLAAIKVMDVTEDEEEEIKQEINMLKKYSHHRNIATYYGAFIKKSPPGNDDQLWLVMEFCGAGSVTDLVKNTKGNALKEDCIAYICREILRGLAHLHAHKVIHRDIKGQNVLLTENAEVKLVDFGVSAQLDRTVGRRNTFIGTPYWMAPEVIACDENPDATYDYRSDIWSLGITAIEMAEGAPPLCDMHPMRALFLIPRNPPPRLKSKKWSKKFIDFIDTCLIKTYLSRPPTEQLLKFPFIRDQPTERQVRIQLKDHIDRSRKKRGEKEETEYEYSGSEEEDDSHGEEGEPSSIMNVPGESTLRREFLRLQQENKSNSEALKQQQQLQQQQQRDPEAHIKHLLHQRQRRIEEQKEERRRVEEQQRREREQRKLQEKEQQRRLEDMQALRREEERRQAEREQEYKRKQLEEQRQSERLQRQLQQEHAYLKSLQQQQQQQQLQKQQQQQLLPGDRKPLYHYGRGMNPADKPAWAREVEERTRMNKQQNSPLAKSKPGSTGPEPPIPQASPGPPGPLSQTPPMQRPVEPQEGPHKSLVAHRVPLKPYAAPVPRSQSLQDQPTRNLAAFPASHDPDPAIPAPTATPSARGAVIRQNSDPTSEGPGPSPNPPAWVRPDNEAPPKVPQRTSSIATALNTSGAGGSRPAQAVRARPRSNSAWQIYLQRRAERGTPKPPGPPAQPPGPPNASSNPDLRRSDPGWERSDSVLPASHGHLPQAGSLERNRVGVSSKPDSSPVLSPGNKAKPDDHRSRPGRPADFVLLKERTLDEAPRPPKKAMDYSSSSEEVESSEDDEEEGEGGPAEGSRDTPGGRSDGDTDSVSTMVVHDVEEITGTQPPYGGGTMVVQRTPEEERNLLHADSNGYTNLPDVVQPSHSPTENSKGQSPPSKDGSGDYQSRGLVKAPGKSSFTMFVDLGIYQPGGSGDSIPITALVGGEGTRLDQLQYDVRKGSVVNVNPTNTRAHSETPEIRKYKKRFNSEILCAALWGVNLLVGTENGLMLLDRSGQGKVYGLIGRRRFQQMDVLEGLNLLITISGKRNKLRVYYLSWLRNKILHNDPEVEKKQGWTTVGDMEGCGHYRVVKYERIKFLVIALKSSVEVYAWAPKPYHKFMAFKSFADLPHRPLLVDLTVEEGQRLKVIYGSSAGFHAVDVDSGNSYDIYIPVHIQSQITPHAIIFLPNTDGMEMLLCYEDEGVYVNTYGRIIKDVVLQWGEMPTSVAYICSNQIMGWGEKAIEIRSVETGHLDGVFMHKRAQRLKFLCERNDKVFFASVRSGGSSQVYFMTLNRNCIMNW
Conditions: at 0.1 µM
Write it as a number; the unit % goes unstated.

Guide cases for inhibition, answers given:
ITEM_SMILES | RECORDED_RESULT
CCS(=O)(=O)c1ccc(OC)c(Nc2ncc(-c3cccc(OC)c3)o2)c1 | 5.68
CN(C)C(=O)O[C@@H]1CN[C@@H](C#Cc2cc3ncnc(Nc4ccc(OCc5cccc(F)c5)c(Cl)c4)c3s2)C1 | 2.49
CS(=O)(=O)Nc1cccc(-c2ccc3c(NC(=O)C4CC4)n[nH]c3c2)c1 | 1.34

Inquiry: Please look up its inhibition: NS(=O)(=O)c1cccc(Nc2cc(-c3ccc(F)cc3)n[nH]2)c1
Reply text: 14.6
